Cited source: patent US20190307728A1

Tested on: DMS114
Experiment: Cell proliferation panel assay
Type: cell-based
Conditions: Homo sapiens, DMS-114, 72 h; DMS114, Lung cancer, 3-day incubation; read-out: Cell Count IC50
pIC50: −log10 of the molar value.
assay.readout: pIC50

compound: CCn1c(CO)nn(-c2cc(O[C@@H](C)C(F)(F)F)c(C(=O)Nc3c(F)cccc3Cl)cc2F)c1=O [Example 1]
reported.result: < 5.00
